# procedure-text: In vitro toxicity, cell viability
# Format: cell-based
# condition-set: FIG. 2; read-out: cell viability IC50
property-name: IC50

Challenge: For CCOC(=O)CSc1nc(NNC(=O)OC)nc(Nc2ccc(NC(=O)OC)c(O)c2)n1 [TZ4_121] , what is its reported IC50?
Response given: ~17 µM

----------
# procedure-text: In vitro absorption, Caco-2 permeability and recovery
# Assay type: in vitro ADME
# condition-set: human, Caco-2; read-out: permeability to Caco-2 cells
property-name: Papp (×10⁻⁶ cm/s)
A number alone suffices; assume ×10⁻⁶ cm/s.

Challenge: Query (compound): CCOC(=O)CSc1nc(NNC(=O)OC)nc(Nc2ccc(NC(=O)OC)c(O)c2)n1 ; field requested: Papp
Response given: 0.2

----------
# System: human sperm motility
# procedure-text: Computer-assisted sperm analysis (CASA) of human sperm motility
# Type: cell-based
# condition-set: Homo sapiens, Sperm; read-out: CASA
property-name: pIC50
Entry type: numeric. Quantity: pIC50, the -log10 of concentration in molar units.

Challenge: What pIC50 value was documented for this compound, CCOC(=O)CSc1nc(=O)c(NCC(=O)OC)n[nH]1 ?
Response given: 4.94

----------
# procedure-text: In vitro metabolism, human liver microsomes
# Type: in vitro ADME
# condition-set: read-out: Human liver microsomes metabolism T½
property-name: half-life (min)
Kindly answer with a numeric value in min, unit omitted.

Challenge: Entry CCOC(=O)CSc1nc(NNC(=O)OC)nc(Nc2ccc(NC(=O)OC)c(O)c2)n1 : reported half-life = ?
Response given: 41

----------
# Test system: human sperm motility
# procedure-text: Computer-assisted sperm analysis (CASA) of human sperm motility
# Assay type: cell-based
# condition-set: Homo sapiens, Sperm; FIGS. 3 and 4; read-out: IC50, CASA, RMI (relative motility)
pIC50: −log10 of the molar value.
property-name: pIC50

Challenge: Entry CCOC(=O)CSc1nc(NNC(=O)OC)nc(Nc2ccc(NC(=O)OC)c(O)c2)n1 has what pIC50?
Response given: ~5.12

Reference source for all entries: patent US10472334B2
